Assay notes: Therapeutic index, ratio of IC50 for human HeLa cells to EC50 for Giardia lamblia trophozoites isolates
Assay type: cell-based
Details: read-out: Ratio IC50/EC50
Below is a list of entries, each paired with its recorded selectivity ratio value.

Some solved entries appear below for comparison.
- Compound: "Cn1c([N+](=O)[O-])cnc1/C=C/c1ccccc1I"
  selectivity ratio: "> 1660"
- Compound: "Cn1c([N+](=O)[O-])cnc1/C=C/c1ccccc1-c1ccccc1"
  selectivity ratio: "> 117"
- Compound: "Cn1c([N+](=O)[O-])cnc1CCc1ccccc1"
  selectivity ratio: "> 474"
- Compound: "Cn1c([N+](=O)[O-])cnc1/C=C/c1ccsc1"
  selectivity ratio: "> 1020"
- Compound: "COc1ccc(/C=C/c2ncc([N+](=O)[O-])n2C)c(OC)c1OC"
  selectivity ratio: "> 162"

We now examine a further compound.
QUERY: Entry Cc1ccc(C(O)C(O)c2ncc([N+](=O)[O-])n2C)cc1 (stereo unspecified) has what selectivity ratio?
RESULT: > 120

Source listed as ChEMBL document CHEMBL1137002.
